These measurements were taken from PubChem BioAssay.

Catalogue of viability increase values
METHOD: viability gain of MRP-1-high H69AR cells under doxorubicin, pilot screen, MRP-1 activator project, CellTiter-Glo, duplicate (AID 807);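 further: compound pretreatment 18-22 h then 72 h combined with doxorubicin; 0% = doxorubicin alone and 100% = vehicle without doxorubicin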
CONDITION INFO: H69AR viability with doxorubicin, CellTiter-Glo luminescence; at 10 µM; stronger effect = higher value
Write down the numeric answer in % and omit the unit.

The following compounds have reported results that may help.
1) Cc1ccc(-c2nc(CS(=O)(=O)CC(=O)NC3CCCCC3C)c(C)o2)cc1 (configuration not stated) | -0.44
2) CCOc1ccccc1N(CC(=O)Nc1ccccc1C(=O)O)S(C)(=O)=O | 0.9
3) Clc1ccc(OCc2nnc(-c3ccccc3Br)o2)c(Cl)c1 | -0.17

Lookup: // viability increase lookup, key: CC(=O)Nc1nc2ccccc2n1CCN(C)C
Found: -0.15

Lookup: Given Nc1[nH]nc2nc(N3CCOCC3)nc(-c3ccccc3)c12 , state its recorded viability increase.
Found: -4.39

Lookup: Requested field: viability increase. Item: Cn1c(/N=C/c2cccs2)nc2ccccc21
Found: -2.39

Lookup: Param item = COC(=O)COC(=O)CC(CC(N)=O)c1ccccc1 (configuration not stated) ; retrieve measured viability increase.
Found: -0.29

Lookup: Which viability increase value belongs to COc1ccc(OCCSc2nnc(-c3ccccc3)n2N)cc1 ?
Found: 0.25

Lookup: Given the entry CCC(C)NC(=O)c1cnc2n(c1=O)CCS2 (configuration not stated) , report its measured viability increase.
Found: 1.88

Lookup: Given COc1ccc(-c2nnc3ccc(SCC(=O)N4CCCC4)nn23)cc1 , state its recorded viability increase.
Found: -4.23

Lookup: Please give the measured viability increase for this compound: O=c1cc(N2CCOCC2)[nH]c(=O)n1-c1ccc(Cl)cc1
Found: -1.67

Lookup: What measured viability increase goes with CNC(=O)N(C1=NCC(C)(C)S1)c1ccc(F)c(Cl)c1 ?
Found: -6.94

* * *

Measured viability accompanies every entry in the list below.
METHOD: growth suppression of beta-catenin knockout HCT116, pilot screen, human colon tumor cells (AID 823);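 further: 0% = wells killed by 20 µM Hyamine and 100% = untreated DMSO cell wells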
CONDITION INFO: CellTiter-Glo, 60 h, at 10 µM, stronger effect = lower value
Inconclusive results are not listed.
Provide only the numeric value, understood in %.

For orientation, consider the following solved cases.
1) Cc1cc(N2CCN(C(=O)c3ccco3)CC2)n2nc(C)nc2n1 | 95.5
2) Cc1ccc2sc(NC(=O)CN3C(=O)CCC3=O)nc2c1C | 114
3) CCCCC(=O)Nc1ccc2c(c1)C(=O)NC2=O | 101
4) CCc1nn(CC(=O)NCCCN2CCCC2=O)c(=O)c2cc3sccc3n12 | 112

Now for the compound whose viability we want.
Lookup: Look up viability for this compound: COc1ccccc1C(=O)n1nc(-c2cccnc2)nc1N
Found: 106

* * *

METHOD: OD615 S. cerevisiae growth inhibition, permissive medium, pilot counter-assay, permissive growth control for S. cerevisiae lifespan shortening project (AID 705)
CONDITION INFO: OD615, 24 h, at 10 µM, stronger effect = higher value
The source made the active and inactive calls.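 Rule for the calls: active = growth inhibition above 25% in both replicates, a cutoff set 3 SD above the mean; inconclusive = above 25% in only one replicate; inactive = the rest.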
Each entry below carries its recorded growth inhibition.

1. O=C(NCc1ccc(Cl)c(Cl)c1)c1cccnc1 | -7.96% (inactive)
2. COCCn1c(=NC(=O)CSC(C)=O)sc2cc(OC)ccc21 | -27.6% (inactive)

Lookup: Which value of growth inhibition has been reported for CCC(CC)C(=O)N1c2ccc(F)cc2CCC1C (stereo unspecified) in the records?
Found: -16.6% (inactive)

Lookup: Param item = COc1ccc(C(=O)N2CCN(c3ccc(C)cc3)CC2)cc1OC ; retrieve measured growth inhibition.
Found: -10.4% (inactive)

Lookup: Form field: reported growth inhibition of CCOC(=O)NC(C(F)(F)F)(C(F)(F)F)P(=O)(c1ccccc1)c1ccccc1
Found: -6.98% (inactive)

Lookup: Look at this compound and give its reported growth inhibition. Cc1ccsc1-c1nc(CSCC(=O)N2CCN(c3ccccc3)CC2)c(C)o1
Found: -4.56% (inactive)
